B1: MLH1 (parent)
chain: YAHQMVRTDSREQKLDAFLQPLSK

Variants of: B1
Assay: protein stability index of a GFP-peptide fusion (GPS, HEK-293T) (PSI 1-6); higher = more stable;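 note: lentivirally expressed fusions sorted by FACS into six bins by GFP to DsRed ratio, PSI derived from sequencing read proportions per bin multiplied by bin number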
Settings: c terminus: a fixed tail appended
Tag: Criterion met if measured protein stability index is not below 3, Criterion not met if it is.

Evaluate P21D : protein stability index at minimum 3?
Criterion not met

Evaluate A17P : protein stability index at minimum 3?
Criterion not met

Evaluate V6F : protein stability index at minimum 3?
Criterion not met

Evaluate Y1G : protein stability index at minimum 3?
Criterion met

Evaluate T8S : protein stability index at minimum 3?
Criterion not met
